Molecular target: DBH (Bos taurus, UniProt P15101)
Sequence (P15101 whole entry): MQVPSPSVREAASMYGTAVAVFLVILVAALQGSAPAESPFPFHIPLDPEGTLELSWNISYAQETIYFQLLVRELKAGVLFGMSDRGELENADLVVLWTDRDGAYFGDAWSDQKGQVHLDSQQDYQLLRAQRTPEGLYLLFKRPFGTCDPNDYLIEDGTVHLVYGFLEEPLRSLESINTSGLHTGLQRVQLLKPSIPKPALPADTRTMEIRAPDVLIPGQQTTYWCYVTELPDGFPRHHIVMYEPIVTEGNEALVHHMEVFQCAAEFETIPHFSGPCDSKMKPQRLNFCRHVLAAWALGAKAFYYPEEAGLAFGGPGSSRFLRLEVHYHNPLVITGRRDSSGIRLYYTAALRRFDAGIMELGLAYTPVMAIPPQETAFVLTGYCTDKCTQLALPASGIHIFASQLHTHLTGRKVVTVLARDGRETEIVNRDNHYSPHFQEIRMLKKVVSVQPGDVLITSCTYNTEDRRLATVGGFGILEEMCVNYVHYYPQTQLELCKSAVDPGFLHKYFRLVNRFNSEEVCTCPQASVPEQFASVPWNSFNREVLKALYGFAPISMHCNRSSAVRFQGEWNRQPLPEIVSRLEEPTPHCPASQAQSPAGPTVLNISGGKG
Assay: in vitro DBH inhibition, conversion of tyramine to octopamine in the presence of DBH (spectrophotometric at 330 nm)
Type: biochemical
Details: @ 10^-4 (molar concentration)
Description: Listed in Table I are Formula II compounds that were tested for in vitro DBH inhibition by a standard procedure for assaying conversion of tyramine to octopamine in the presence of DBH. J. J. Pisano, et al., Biochim. Biophys. Acta, 43, 566-568 (1960). Octopamine was assayed following sodium periodate oxidation to p-hydroxybenzaldehyde by measuring spectrophotometric absorbance at 330 nm. In Table I, inhibition is given in molar concentration of compound at which DBH activity was halved (IC50). […]
measurementName: DBH inhibition (%)

structureString | measuredNumber
COc1ccc(CCCc2cnc(S)[nH]2)cc1 | 39
Oc1ccc(CCCc2cnc(S)[nH]2)cc1 | 29
COc1ccc(-c2cnc(S)[nH]2)cc1 | 38
COc1ccc(Cc2cnc(S)[nH]2)cc1 | 36
Oc1ccc(CCCCc2cnc(S)[nH]2)cc1 | 24
COc1ccc(CCc2cnc(S)[nH]2)cc1 | 8.4

Data credit: patent US4798843A
